Value source: paper PMC9227536

assayComment: PK study in mice (intravenous and oral)
Assay type: in vivo, male ICR mice
statedConditions: male, ICR, mouse, plasma, intravenous 10 mg/kg, read-out: t1/2 (converted)
measurementLabel: half-life (min)
Please give a number only; it is taken to be in min.

q: Give the reported value of half-life for this record: "CC(C)(C)[C@H](NC(=O)[C@H](CC1CCCC1)CN(O)C=O)C(=O)N1CCC(NCc2cc(F)c(F)cc2F)CC1"
a: 43.9

---

assayComment: in vitro
Type: in vitro ADME
statedConditions: mouse, microsomes
measurementLabel: fraction unbound at 5 h
Field format: numeric only.

q: Give the reported value of fraction unbound at 5 h for this record: CC(C)(C)[C@H](NC(=O)[C@H](CC1CCCC1)CN(O)C=O)C(=O)N1CCC(NCc2cc(F)c(F)cc2F)CC1 [IDP-73152]
a: 0.571
